# test.target: T1, c-Met ECD/Fc (R&D Systems #358 MT), human (human, UniProt P08581 25-932)
# T1 construct: extracellular domain; Bought fusion protein; also called c-Met ECD-Fc (human); human Met ECD-Fc; not shown: Fc part of the bought fusion protein
# T1 sequence (P08581 25-932): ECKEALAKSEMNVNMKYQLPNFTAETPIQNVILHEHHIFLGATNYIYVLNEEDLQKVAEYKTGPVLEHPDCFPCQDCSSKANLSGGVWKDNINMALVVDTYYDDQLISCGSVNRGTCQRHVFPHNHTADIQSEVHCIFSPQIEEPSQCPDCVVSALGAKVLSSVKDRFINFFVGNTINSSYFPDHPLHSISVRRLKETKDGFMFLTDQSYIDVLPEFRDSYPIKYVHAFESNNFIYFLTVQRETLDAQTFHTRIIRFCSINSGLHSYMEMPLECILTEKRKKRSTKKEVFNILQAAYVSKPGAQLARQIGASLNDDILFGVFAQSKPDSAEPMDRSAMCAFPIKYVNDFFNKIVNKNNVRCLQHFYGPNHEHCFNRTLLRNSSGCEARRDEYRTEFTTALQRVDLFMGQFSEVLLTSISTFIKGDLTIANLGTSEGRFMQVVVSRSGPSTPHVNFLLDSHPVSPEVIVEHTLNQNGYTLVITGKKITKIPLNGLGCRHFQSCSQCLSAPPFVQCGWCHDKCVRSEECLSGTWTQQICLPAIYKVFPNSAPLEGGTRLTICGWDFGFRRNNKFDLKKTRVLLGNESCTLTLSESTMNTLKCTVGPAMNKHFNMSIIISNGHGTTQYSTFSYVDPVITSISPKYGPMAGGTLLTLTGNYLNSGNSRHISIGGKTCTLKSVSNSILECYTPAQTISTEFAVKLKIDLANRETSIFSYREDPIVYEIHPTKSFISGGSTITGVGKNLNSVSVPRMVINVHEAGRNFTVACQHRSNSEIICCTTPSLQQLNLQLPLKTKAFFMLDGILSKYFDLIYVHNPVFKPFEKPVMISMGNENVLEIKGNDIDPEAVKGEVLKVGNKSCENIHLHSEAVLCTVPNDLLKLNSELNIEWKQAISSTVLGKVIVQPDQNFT
# protocol: SPR (BIACORE 3000), human c-Met ECD-Fc immobilized, antibody injected
parameter: koff (s⁻¹)
Field format: number, assumed s⁻¹, no unit text.

(Q) Identify measured koff corresponding to anti-c-Met monoclonal antibody 13.3.2 (antibody, human IgG2, kappa, V domains shown, Human IgG2 kappa from XenoMouse hybridoma; The variable positions X2, X4, X6, X8 correspond to positions 42, 97, 14 (heavy) and 91 (light), where position one is the N-terminal amino acid; these numbers may not count on the entry with its leader; also called PTA-5026) VH: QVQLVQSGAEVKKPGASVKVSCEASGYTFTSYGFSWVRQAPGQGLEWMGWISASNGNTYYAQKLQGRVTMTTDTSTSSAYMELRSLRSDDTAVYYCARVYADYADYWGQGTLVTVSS VL: DIQMTQSPSSVSASVGDRVTITCRASQGINTWLAWYQQKPGKAPKLLIYAASSLKSGVPSRFSGSGSGADFTLTISSLQPEDFATYYCQQANSFPLTFGGGTKVEIKR
(A) 0.00015
